Where these numbers come from: ChEMBL document CHEMBL3988442

# assayedSystem: Arginase-2, mitochondrial (Homo sapiens)
# runDescription: in vitro enzyme assay to detect the production of urea directly proportional to the activity of Arginase II; note: in the data most compounds retested in dose-response had high values
# Format: functional
# Design: scale not given: direction of the effect not stated beside the values
# particulars: 33.3 µM
For each of the compounds below, state its Percent Effect.
Answers are plain numbers, in %.

For each of the compounds below, note its Percent Effect.
1. O=C(N[C@@H]1CN(c2ncccn2)C[C@@H]2CCCO[C@@H]21)c1cnccn1
2. COc1c(C)cnc(CSc2nnc(C)s2)c1C
3. O=C(Nc1ccc(F)cc1)N1C[C@H]2CC[C@@H]1CN(Cc1cccnc1)C2
4. CCc1cc(NCc2ccccc2CN2CCCC2)n2ncnc2n1
5. CS(=O)(=O)N1CCC(C(=O)NC(Cc2ccsc2)c2ccccn2)CC1 (stereo unspecified)
6. O=C(c1ccc(C2CCCO2)s1)N1Cc2ccccc2C1 (stereo unspecified)
7. CC(C)c1nccn1C1CCCN(C(=O)c2cnn(C)c2C2CC2)C1 (stereo unspecified)
8. Cc1nc(C)n(CC2CCCN(c3ncnc4ccsc34)C2)n1 (stereo unspecified)

Result:
1: -48.6; 2: 8.33; 3: 4.54; 4: 5.92; 5: 1.16; 6: -2.86; 7: -5.75; 8: 1.2

* * *

Answer each item with its documented Percent Effect.
# assayedSystem: AMP-activated protein kinase, AMPK (Homo sapiens) (UniProt P54646+O43741+P54619+Q9UGJ0+Q9Y478+Q13131+Q9UGI9)
# runDescription: AMP-dependent Kinase enzyme assay. An in vitro enzyme assay that detects ADP turnover that is directly proportional to AMPK activity. This uses naive AMPK that is activated during the assay with MK-8722
# Type: functional
# Parameters: scale not given: direction of the effect not stated beside the values
# particulars: 30 µM
One number for each entry, in %.

CC(Cn1cccn1)NC(=O)NCCc1cnn(C)c1 (configuration not stated) : -9

Need Percent Effect for each of these compounds.
1. CCOC[C@@H]1CCC[C@@]12CN(Cc1nccs1)CCO2
2. NC(=O)c1nnn(-c2ccc(Br)cc2)n1
3. Cc1ccccc1CSc1nc(N)cc(N2CC[C@@H](O)C2)n1
4. O=C(CCc1ccccc1)C1CCCN(C(=O)c2ncc(F)cc2F)C1 (configuration not stated)
5. CC(CNC(=O)Nc1cn[nH]c1)N1CCc2ccccc2C1 (configuration not stated)
6. CS(=O)(=O)N1CCC(Oc2ccc(C(=O)N3CCSCC3)cc2Cl)CC1

Result:
-1.62
-6.83
-11.2
0.372
-4.05
3.27

Provide each entry's Percent Effect from the list below.
1. Cc1nc(CN2CC3(CCN(c4ncc(F)cn4)C3)CC2=O)cs1 (configuration not stated)
2. CN(C)C(=O)CNC(=O)Nc1cccc(Cl)c1SC(F)F
3. CNc1nc(CNC(=O)Nc2cccc(F)c2C)cs1
4. c1ccc(-c2cc(CN3CCC(c4ccn[nH]4)CC3)on2)cc1

Result:
[8.52, 2.42, -1.93, -3.14]

Ask: Recorded Percent Effect for `Cc1ccc(CN(C)C(=O)CN2CC(n3cccn3)C2)o1` , please?
Result: 17.5

* * *

# assayedSystem: Protein translocase subunit SecA (Escherichia coli (strain K12))
# runDescription: Assay to Identify E. coli SecA ATPase Inhibitors
# Assay type: functional
# Parameters: scale not given: direction of the effect not stated beside the values
# particulars: 30 µM
Results with a measured potency or affinity are listed apart.
Could you please report measured Percent Effect for the items listed next?
Give bare numbers, in %.

Some solved cases for reference:
CCc1nc(CN2CCCN(C(=O)C(C)n3ccnc3)CC2)cs1 (centres undefined) : -2.92
O=C(CCn1ccccc1=O)Nc1ccc(F)c(Cl)c1 : -5.08

Look at each compound and report its Percent Effect.
1. c1cnc(N2CCOC3(CCN(CC4CCCCC4)CC3)C2)nc1
2. Cc1cccc(OCCC(=O)N(C)CCC#N)c1C
3. Cn1cc(CN2CCC(F)(F)C3(CCN(c4cnccn4)C3)C2)cn1 (centres undefined)
4. NC(=O)C1CCN(Cc2cccc(NC(=O)c3ccsc3)c2)CC1
5. CCc1nc(C)c(C(=O)NCCNc2ncccn2)s1
6. CCOc1ccc(N(CC(=O)c2ccccc2)C2=NCCCCC2)cc1
7. Cn1nccc1C(=O)N1CCOC(Cc2cccnc2)C1 (centres undefined)

Result:
0.617
-4.33
-4.19
-6.14
-4.61
-1.17
-5.75
